# Test system: MDA-MB-435 melanoma
# experimental details: NCI-60 one-dose screen, 48 h (100 = growth as untreated, 0 = no growth, -100 = all killed)
# condition description: 10 µM unless noted
About 83,000 compounds went through this panel and 20% of them were active in at least one assay; those are over-represented in the sample as a whole.
Threshold-based label: growth under -20% gives 1, growth not under -20% gives 0.

{"molecule": "N=c1c2c(=N)n3c(nc2nc2n1-c1ccccc1Sc1ccccc1-2)sc1cc(Cl)ccc13", "class": 0}
{"molecule": "CC/C=C\\C/C=C/C=C1/C(=O)C=C[C@@H]1C/C=C\\CCCC(=O)OC", "class": 1}
{"molecule": "COc1ccc(C2=NN(C(=O)c3cc(OC)c(OC)c(OC)c3)C(c3ccc(N(C)C)cc3)C2)cc1 (configuration not stated)", "class": 1}
{"molecule": "O=C(CSc1nc2ccc([N+](=O)[O-])cc2[nH]1)Nc1ccc(Br)cc1", "class": 0}
{"molecule": "Cn1cc(-c2nn3cc(-c4ccccc4)nc3s2)c2ccccc21", "class": 0}
{"molecule": "C=C1C(=O)O[C@H]2[C@H]1CC/C(COC(=O)NCc1ccc(Cn3c(=O)sn(-c4ccc(OC)cc4)c3=O)cc1)=C\\CC[C@@]1(C)O[C@@H]21", "class": 0}
{"molecule": "O=C1/C(=C/c2ccccc2[N+](=O)[O-])COc2ccc(O)cc21", "class": 1}
{"molecule": "Cc1cc(C(=O)Nc2cc(Nc3ncccc3-c3ncnc4nc[nH]c34)ccc2F)cc(C(F)(F)F)c1", "class": 0}
{"molecule": "CCCCCn1sc(=O)n(Cc2ccc(CNC(=O)OCc3ccc4c(Cl)cc(Cl)c(O)c4n3)cc2)c1=O", "class": 0}
{"molecule": "CC(/C=C1\\SC(=S)N(CC(=O)NC(Cc2c[nH]c3ccccc23)C(=O)O)C1=O)=C\\c1ccccc1 (configuration not stated)", "class": 0}

Kindly review the next molecule as well.
query: API: query returns whether the molecule falls strictly under -20% in growth. Query: COc1ccc(NC(=O)c2ccc(C(=O)Nc3ccc(OC)cc3OC)cc2)c(OC)c1
result: 0

* * *

# Test system: OVCAR-8 ovarian
# experimental details: NCI-60 one-dose screen, 48 h
# condition description: 10 µM unless noted
About 83,000 compounds went through this panel and 20% of them were active in at least one assay; those are over-represented in the sample as a whole. The source made the active and inactive calls. How the source made its calls: active means growth percent below 10; inactive means the rest.
Respond using exactly one of the listed classes: label 1 (active), label 0 (inactive)

Solved cases (4 shown):
{"compound": "FC(F)(F)c1[nH]ncc1-c1nc2c(N3CCCCC3)cc3[nH]ncc3c2c2c1CCCC2", "class": "label 1"}
{"compound": "COC(=O)C1=Nc2ccc(F)cc2/C1=C\\c1sc(Nc2ccc(O)cc2)nc1O", "class": "label 0"}
{"compound": "COc1cccc(/C=C2\\COc3ccc(O)cc3C2=O)c1", "class": "label 0"}
{"compound": "N=c1sc(Cc2cc(Cl)ccc2Cl)cn1CC(=O)c1ccccc1", "class": "label 0"}

query: Please let me know the test result on file for CCN1C(=O)N(CC)C2C1NN=c1s/c(=C\c3cc4ccccc4[nH]3)c(=O)n12 (stereo unspecified) .
result: label 1

query: Please let me know the test result on file for C=NNc1ccccc1 .
result: label 0
